- test-target: Substance-P receptor (Homo sapiens)
- Sequence (P25103 whole entry): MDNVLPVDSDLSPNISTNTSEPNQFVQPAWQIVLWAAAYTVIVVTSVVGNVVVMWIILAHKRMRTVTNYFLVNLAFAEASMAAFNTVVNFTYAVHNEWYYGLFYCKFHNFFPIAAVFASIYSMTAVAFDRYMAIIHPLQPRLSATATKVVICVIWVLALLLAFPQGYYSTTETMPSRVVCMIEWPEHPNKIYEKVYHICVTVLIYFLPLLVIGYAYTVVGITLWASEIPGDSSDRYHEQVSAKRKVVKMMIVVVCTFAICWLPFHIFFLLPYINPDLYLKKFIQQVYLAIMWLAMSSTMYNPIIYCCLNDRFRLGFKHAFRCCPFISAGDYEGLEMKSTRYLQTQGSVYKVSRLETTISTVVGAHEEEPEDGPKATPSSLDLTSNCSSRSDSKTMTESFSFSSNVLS
Each entry below carries its reported log10 of IC50.
metric: log10 of IC50 (log10 of the value in nM)

1. CN(CC(c1ccc(F)c(F)c1F)N1CCC(N2CCCCC2)CC1)C(=O)Cc1cc(C(F)(F)F)cc(C(F)(F)F)c1 (stereo not drawn)    0.26
2. O=C(Cc1cc(C(F)(F)F)cc(C(F)(F)F)c1)NCC(c1ccc2c(c1)OCCO2)N1CCC(N2CCCCC2)CC1 (stereo not drawn)    2.15
3. COc1ccccc1C(CNC(=O)Cc1ccc(Cl)cc1)N1CCN(C2CCCCC2)CC1 (stereo not drawn)    2.93
4. COc1ccccc1C(CNC(=O)Cc1ccccc1C(F)(F)F)N1CCN(C2CCCCC2)CC1 (stereo not drawn)    2.43
5. Cc1c(F)cccc1C(CNC(=O)Cc1cc(C(F)(F)F)cc(C(F)(F)F)c1)N1CCC(N2CCCCC2)CC1 (stereo not drawn)    0.48
6. Cc1cc(C)cc(CC(=O)N(C)CC(c2cccc3c2OCO3)N2CCC(N3CCCCC3)CC2)c1 (stereo not drawn)    0.46
7. COc1ccccc1C(C1CCCCN1C(=O)Cc1cc(C(F)(F)F)cc(C(F)(F)F)c1)N1CCC(N2CCCCC2)CC1 (stereo not drawn)    0.63
8. CN(CC(c1cccc2c1OCO2)N1CCC(N2CCCCC2)CC1)C(=O)C(c1ccccc1)c1ccccc1 (stereo not drawn)    1.34
9. CN(CC(c1ccc2c(c1)OCO2)N1CCC(N2CCCCC2)CC1)C(=O)Cc1cc(C(F)(F)F)cc(C(F)(F)F)c1 (stereo not drawn)    0.68
10. CN(CC(c1ccccc1)N1CCN(C2CCCCC2)CC1)C(=O)Cc1cc(C(F)(F)F)cc(C(F)(F)F)c1 (stereo not drawn)    0.30
11. CN(CC(Cc1ccccc1)N1CCC(N2CCCCC2)CC1)C(=O)Cc1cc(C(F)(F)F)cc(C(F)(F)F)c1 (stereo not drawn)    1.51
12. O=C(Cc1cc(C(F)(F)F)cc(C(F)(F)F)c1)NCC(c1ccc(Cl)c(Cl)c1)N1CCC(N2CCCCC2)CC1 (stereo not drawn)    -0.12
13. COc1ccccc1C(CNC(=O)Cc1cc(C)cc(C)c1)N1CCN(C2CCCCC2)CC1 (stereo not drawn)    1.18
14. CN(CC(c1ccccc1Br)N1CCC(N2CCCCC2)CC1)C(=O)Cc1cc(C(F)(F)F)cc(C(F)(F)F)c1 (stereo not drawn)    0.04
15. CN(CC(c1ccc(F)cc1Cl)N1CCC(N2CCCCC2)CC1)C(=O)Cc1cc(C(F)(F)F)cc(C(F)(F)F)c1 (stereo not drawn)    0.18
16. O=C(Cc1cc(C(F)(F)F)cc(C(F)(F)F)c1)NCC(c1cccc2ccccc12)N1CCN(C2CCCCC2)CC1 (stereo not drawn)    0.45
17. CN(CC(c1ccc(Cl)c(Cl)c1)N1CCC(N2CCCCC2)CC1)C(=O)Cc1cc(C(F)(F)F)cc(C(F)(F)F)c1 (stereo not drawn)    0.36
18. O=C(Cc1cc(C(F)(F)F)cc(C(F)(F)F)c1)NCC(c1ccc(Cl)c(Cl)c1)N1CCC(N(CCO)CCO)CC1 (stereo not drawn)    0.72
19. CC(C)N1CCN(C(CN(C)C(=O)Cc2cc(C(F)(F)F)cc(C(F)(F)F)c2)c2cccc3c2OCO3)CC1 (stereo not drawn)    0.15
20. CN(CC(c1cccc2c1OCO2)N1CCC(N2CCCCC2)CC1)C(=O)Cc1ccccc1Br (stereo not drawn)    0.78
21. CN(CC(c1cccc2c1OCO2)N1CCN(C2CCCCC2)CC1)C(=O)Cc1cc(C(F)(F)F)cc(C(F)(F)F)c1 (stereo not drawn)    0.11
22. COc1cccc(C(CNC(=O)Cc2cc(C(F)(F)F)cc(C(F)(F)F)c2)N2CCC(N3CCCCC3)CC2)c1OC (stereo not drawn)    0.88
23. Cc1c(F)cccc1C(CN(C)C(=O)Cc1cc(C(F)(F)F)cc(C(F)(F)F)c1)N1CCC(N2CCCCC2)CC1 (stereo not drawn)    0.15
24. CN(CC(c1ccc(F)c(Cl)c1)N1CCC(N2CCCCC2)CC1)C(=O)Cc1cc(C(F)(F)F)cc(C(F)(F)F)c1 (stereo not drawn)    0.23
25. COc1ccccc1C(CNC(=O)Cc1cc(C(F)(F)F)cc(C(F)(F)F)c1)N1CCCCC1 (stereo not drawn)    2.40
26. CN(CC(c1cc(Cl)cc(Cl)c1Cl)N1CCC(N2CCCCC2)CC1)C(=O)Cc1cc(C(F)(F)F)cc(C(F)(F)F)c1 (stereo not drawn)    0.48
27. COc1ccccc1C(CNC(=O)Cc1cc(C(F)(F)F)cc(C(F)(F)F)c1)N1CCC(O)(c2ccccc2)CC1 (stereo not drawn)    2.11
28. O=C(Cc1cc(C(F)(F)F)cc(C(F)(F)F)c1)NCC(c1ccc(F)c(F)c1)N1CCC(N2CCCCC2)CC1 (stereo not drawn)    0.52
29. COc1ccc(OC)c(C(CNC(=O)Cc2cc(C(F)(F)F)cc(C(F)(F)F)c2)N2CCC(N3CCCCC3)CC2)c1 (stereo not drawn)    2.04
30. CN(CC(c1ccc2c(c1)OCCO2)N1CCC(N2CCCCC2)CC1)C(=O)Cc1cc(C(F)(F)F)cc(C(F)(F)F)c1 (stereo not drawn)    0.95
31. CN(CC(c1cccc2c1OCO2)N1CCC(N2CCCCC2)CC1)C(=O)Cc1ccccc1Cl (stereo not drawn)    1.08
32. O=C(Cc1cc(C(F)(F)F)cc(C(F)(F)F)c1)NCC(c1ccccc1)N1CCC(N2CCCCC2)CC1 (stereo not drawn)    0.73
33. COc1ccccc1C(CNC(=O)Cc1ccc(Cl)c(Cl)c1)N1CCN(C2CCCCC2)CC1 (stereo not drawn)    2.45
